We begin with a simple list: items and their reported %-inhibition of PKCζ.
molecular target: panel of more than 300 wild-type and mutant kinases (313 kinase panel) (Homo sapiens); assay: Kinase profiling in a biochemical assay panel (mobility shift assays and ELISA), %-inhibition at 1 μM; selectivity entropy; settings: kinase PKCζ; 1 μM
Enter your answer as a number in %; do not include the unit.

Some entries whose results are on file:
| molecule | experimental.target | numeric.result |
| --- | --- | --- |
| CCCS(=O)(=O)Nc1ccc(F)c(C(=O)c2c[nH]c3ncc(-c4ccc(Cl)cc4)cc23)c1F | panel of more than 300 wild-type and mutant kinases (313 kinase panel) (Homo sapiens) | 13 |
| COc1cc(Nc2c(C#N)cnc3cc(OCCCN4CCN(C)CC4)c(OC)cc23)c(Cl)cc1Cl | panel of more than 300 wild-type and mutant kinases (313 kinase panel) (Homo sapiens) | 14 |
| COc1cc2nccc(Oc3ccc(NC(=O)C4(C(=O)Nc5ccc(F)cc5)CC4)cc3)c2cc1OC [cabozantinib] | panel of more than 300 wild-type and mutant kinases (313 kinase panel) (Homo sapiens) | 4 |
| CNC(=O)c1cc(Oc2ccc(NC(=O)Nc3ccc(Cl)c(C(F)(F)F)c3)c(F)c2)ccn1 | panel of more than 300 wild-type and mutant kinases (313 kinase panel) (Homo sapiens) | 5 |

What is its %-inhibition of PKCζ for panel of more than 300 wild-type and mutant kinases (313 kinase panel) (Homo sapiens)? Entry: CO[C@H]1C[C@@H]2CC[C@@H](C)[C@@](O)(O2)C(=O)C(=O)N2CCCC[C@H]2C(=O)O[C@H]([C@H](C)C[C@@H]2CC[C@@H](OCCO)[C@H](OC)C2)CC(=O)[C@H](C)/C=C(\C)[C@@H](O)[C@@H](OC)C(=O)[C@H](C)C[C@H](C)/C=C/C=C/C=C/1C
5

What is its %-inhibition of PKCζ for panel of more than 300 wild-type and mutant kinases (313 kinase panel) (Homo sapiens)? Entry: N#CC[C@H](C1CCCC1)n1cc(-c2ncnc3[nH]ccc23)cn1
-9

----------
biological target: panel of more than 300 wild-type and mutant kinases (313 kinase panel) (Homo sapiens, UniProt Q8N568); assay: Kinase profiling in a biochemical assay panel (mobility shift assays and ELISA), %-inhibition at 1 μM; selectivity entropy; settings: kinase DCAMKL2; compound at 1 μM
We begin with a simple list: items and their reported %-inhibition of DCAMKL2.
Enter your answer as a number in %; do not include the unit.

Some entries whose results are on file:
| compound | %-inhibition of DCAMKL2 [%] |
| --- | --- |
| CO[C@H]1C[C@@H]2CC[C@@H](C)[C@@](O)(O2)C(=O)C(=O)N2CCCC[C@H]2C(=O)O[C@H]([C@H](C)C[C@@H]2CC[C@@H](OCCO)[C@H](OC)C2)CC(=O)[C@H](C)/C=C(\C)[C@@H](O)[C@@H](OC)C(=O)[C@H](C)C[C@H](C)/C=C/C=C/C=C/1C [everolimus] | -5.64 |
| COc1cc2nccc(Oc3ccc(NC(=O)C4(C(=O)Nc5ccc(F)cc5)CC4)cc3)c2cc1OC [cabozantinib] | -2.62 |
| Cc1ccc(C(=O)Nc2ccc(CN3CCN(C)CC3)c(C(F)(F)F)c2)cc1C#Cc1cnc2cccnn12 [ponatinib] | -3.72 |
| C[C@@H](Oc1cc(-c2cnn(C3CCNCC3)c2)cnc1N)c1c(Cl)ccc(F)c1Cl [crizotinib] | 49 |
| COc1cc2c(Nc3ccc(Br)cc3F)ncnc2cc1OCC1CCN(C)CC1 [vandetanib] | -5 |

Query: %-inhibition of DCAMKL2; subject: COc1cc(Nc2c(C#N)cnc3cc(OCCCN4CCN(C)CC4)c(OC)cc23)c(Cl)cc1Cl [bosutinib]
-2.32

----------
target: panel of more than 300 wild-type and mutant kinases (313 kinase panel) (Homo sapiens, UniProt P15735); test: Kinase profiling in a biochemical assay panel (mobility shift assays and ELISA), %-inhibition at 1 μM; selectivity entropy; conditions: kinase PHKG2; 1 μM
endpoint: %-inhibition of PHKG2 (%)
Enter your answer as a number in %; do not include the unit.

| compound | numeric.result |
| --- | --- |
| COc1cc2c(Nc3ccc(Br)cc3F)ncnc2cc1OCC1CCN(C)CC1 [vandetanib] | 19 |
| C[C@@H](Oc1cc(-c2cnn(C3CCNCC3)c2)cnc1N)c1c(Cl)ccc(F)c1Cl [crizotinib] | 10 |
| Cc1cn(-c2cc(NC(=O)c3ccc(C)c(Nc4nccc(-c5cccnc5)n4)c3)cc(C(F)(F)F)c2)cn1 [nilotinib] | -9 |
| Cc1ccc(Nc2nccc(N(C)c3ccc4c(C)n(C)nc4c3)n2)cc1S(N)(=O)=O [pazopanib] | 1 |
| CO[C@H]1C[C@@H]2CC[C@@H](C)[C@@](O)(O2)C(=O)C(=O)N2CCCC[C@H]2C(=O)O[C@H]([C@H](C)C[C@@H]2CC[C@@H](OCCO)[C@H](OC)C2)CC(=O)[C@H](C)/C=C(\C)[C@@H](O)[C@@H](OC)C(=O)[C@H](C)C[C@H](C)/C=C/C=C/C=C/1C [everolimus] | -8 |

Query: %-inhibition of PHKG2; subject: CNC(=O)c1cc(Oc2ccc(NC(=O)Nc3ccc(Cl)c(C(F)(F)F)c3)c(F)c2)ccn1 [regorafenib]
-8

Query: %-inhibition of PHKG2; subject: N#CC[C@H](C1CCCC1)n1cc(-c2ncnc3[nH]ccc23)cn1 [ruxolitinib]
18

----------
We begin with a simple list: items and their reported %-inhibition of MAP2K7.
target: panel of more than 300 wild-type and mutant kinases (313 kinase panel) (Homo sapiens); assay: Kinase profiling in a biochemical assay panel (mobility shift assays and ELISA), %-inhibition at 1 μM; selectivity entropy; settings: kinase MAP2K7; compound at 1 μM
Enter your answer as a number in %; do not include the unit.

Some entries whose results are on file:
| chem.smiles | endpoint | scale.unit | numeric.result |
| --- | --- | --- | --- |
| O=S(=O)(c1cccc2cnccc12)N1CCCNCC1 | %-inhibition of MAP2K7 | % | -3.26 |
| Cc1nc(Nc2ncc(C(=O)Nc3c(C)cccc3Cl)s2)cc(N2CCN(CCO)CC2)n1 | %-inhibition of MAP2K7 | % | -7 |
| Cc1cn(-c2cc(NC(=O)c3ccc(C)c(Nc4nccc(-c5cccnc5)n4)c3)cc(C(F)(F)F)c2)cn1 | %-inhibition of MAP2K7 | % | -24 |
| CO[C@H]1C[C@@H]2CC[C@@H](C)[C@@](O)(O2)C(=O)C(=O)N2CCCC[C@H]2C(=O)O[C@H]([C@H](C)C[C@@H]2CC[C@@H](OCCO)[C@H](OC)C2)CC(=O)[C@H](C)/C=C(\C)[C@@H](O)[C@@H](OC)C(=O)[C@H](C)C[C@H](C)/C=C/C=C/C=C/1C | %-inhibition of MAP2K7 | % | 11 |

What is its %-inhibition of MAP2K7 for panel of more than 300 wild-type and mutant kinases (313 kinase panel) (Homo sapiens)? Entry: CO[C@H]1C[C@@H]2CC[C@@H](C)[C@@](O)(O2)C(=O)C(=O)N2CCCC[C@H]2C(=O)O[C@H]([C@H](C)C[C@@H]2CC[C@@H](OC(=O)C(C)(CO)CO)[C@H](OC)C2)CC(=O)[C@H](C)/C=C(\C)[C@@H](O)[C@@H](OC)C(=O)[C@H](C)C[C@H](C)/C=C/C=C/C=C/1C
10

What is its %-inhibition of MAP2K7 for panel of more than 300 wild-type and mutant kinases (313 kinase panel) (Homo sapiens)? Entry: CS(=O)(=O)CCNCc1ccc(-c2ccc3ncnc(Nc4ccc(OCc5cccc(F)c5)c(Cl)c4)c3c2)o1
-4

What is its %-inhibition of MAP2K7 for panel of more than 300 wild-type and mutant kinases (313 kinase panel) (Homo sapiens)? Entry: CCCS(=O)(=O)Nc1ccc(F)c(C(=O)c2c[nH]c3ncc(-c4ccc(Cl)cc4)cc23)c1F
1.65

What is its %-inhibition of MAP2K7 for panel of more than 300 wild-type and mutant kinases (313 kinase panel) (Homo sapiens)? Entry: CNC(=O)c1cc(Oc2ccc(NC(=O)Nc3ccc(Cl)c(C(F)(F)F)c3)c(F)c2)ccn1
-2.53

----------
biological target: panel of more than 300 wild-type and mutant kinases (313 kinase panel) (Homo sapiens); experiment: Kinase profiling in a biochemical assay panel (mobility shift assays and ELISA), %-inhibition at 1 μM; selectivity entropy; details: kinase IRAK1; compound at 1 μM
endpoint: %-inhibition of IRAK1 (%)
Enter your answer as a number in %; do not include the unit.

| compound | scale.unit | %-inhibition of IRAK1 |
| --- | --- | --- |
| CC(C)(C)c1nc(-c2cccc(NS(=O)(=O)c3c(F)cccc3F)c2F)c(-c2ccnc(N)n2)s1 [dabrafenib] | % | -48 |

Query: %-inhibition of IRAK1; subject: COc1cc2nccc(Oc3ccc(NC(=O)C4(C(=O)Nc5ccc(F)cc5)CC4)cc3)c2cc1OC [cabozantinib]
14

Query: %-inhibition of IRAK1; subject: Cc1ccc(Nc2nccc(N(C)c3ccc4c(C)n(C)nc4c3)n2)cc1S(N)(=O)=O [pazopanib]
8

Query: %-inhibition of IRAK1; subject: Cc1nc(Nc2ncc(C(=O)Nc3c(C)cccc3Cl)s2)cc(N2CCN(CCO)CC2)n1 [dasatinib]
2.75

Query: %-inhibition of IRAK1; subject: Cc1ccc(C(=O)Nc2ccc(CN3CCN(C)CC3)c(C(F)(F)F)c2)cc1C#Cc1cnc2cccnn12 [ponatinib]
79

Query: %-inhibition of IRAK1; subject: CCCS(=O)(=O)Nc1ccc(F)c(C(=O)c2c[nH]c3ncc(-c4ccc(Cl)cc4)cc23)c1F [vemurafenib]
10

Query: %-inhibition of IRAK1; subject: COc1cc2c(Nc3ccc(Br)cc3F)ncnc2cc1OCC1CCN(C)CC1 [vandetanib]
46

Query: %-inhibition of IRAK1; subject: CNC(=O)c1cc(Oc2ccc(NC(=O)Nc3ccc(Cl)c(C(F)(F)F)c3)c(F)c2)ccn1 [regorafenib]
16
